# experimental.target: Arginase-2, mitochondrial (Homo sapiens) (UniProt P78540)
# Sequence (P78540 whole entry): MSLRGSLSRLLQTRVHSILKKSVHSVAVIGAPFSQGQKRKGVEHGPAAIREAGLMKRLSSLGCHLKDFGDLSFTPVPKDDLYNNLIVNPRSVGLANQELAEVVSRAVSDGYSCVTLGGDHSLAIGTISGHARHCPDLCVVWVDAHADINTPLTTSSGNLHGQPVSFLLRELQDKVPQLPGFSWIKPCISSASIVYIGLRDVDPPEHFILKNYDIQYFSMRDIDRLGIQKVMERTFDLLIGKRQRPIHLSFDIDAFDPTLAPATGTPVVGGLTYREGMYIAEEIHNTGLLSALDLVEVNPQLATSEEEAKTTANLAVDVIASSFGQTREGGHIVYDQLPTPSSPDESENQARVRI
# assay.details: in vitro enzyme assay to detect the production of urea directly proportional to the activity of Arginase II
# Format: functional
# Parameters: scale not given: in the data most compounds retested in dose-response had high values
# measurement.setup: 33.3 µM
# key: entry, value: Percent Effect
The reply should contain only the number, in %.

[[record]]
compound = "CCc1nnc(CN2CCN(C(=O)c3ccccn3)CC2)o1"
metric = "Percent Effect"
val = 6.53


Consider the compound Cc1nn(C)c(C)c1CNCc1ccnc(N2CCOCC2)c1 and give its measured Percent Effect.
-0.645

What do you have for Cc1noc(CN2CCN(Cc3cccs3)CC2)n1 ?
4.27

What about Cc1cc(CN(C)C(=O)NCC(C)N2CCc3ccccc32)no1 (stereo not drawn) ?
-2.25

Same lookup for Cc1ccc(S(=O)(=O)NC(=O)c2cccc3c2OCCO3)c(C)c1 , please.
4.54

Another compound: O=C(NCCNc1ncccn1)C1CCN(CC(F)(F)F)CC1
0.802

Repeat for the following compound: COc1ccccc1OCC(=O)NS(=O)(=O)c1ccc(Br)s1
2.66

How about N#CCCN(CCC#N)C(=O)CN1CCCC1Cc1cccc(F)c1 (stereo not drawn) ?
1.25

And then Cc1cnn(CC2CN(CCS(=O)(=O)c3ccccc3)CCO2)c1 (stereo not drawn) , what is it?
-0.248

Also, CC(C)c1ncncc1C(=O)NCCN1CCCS1(=O)=O please.
3.69

Please do the same for O=C(CCNc1ncccn1)N1CCCC(n2ccnc2)C1 (stereo not drawn) as well.
0.645

Follow-up entry: CC(C(=O)NCCN1CCCCCC1)n1cncn1 (stereo not drawn)
1.8

Note, next up: Cc1nccn1C1CCCN(C(=O)COCC(F)(F)F)C1 (stereo not drawn)
-2.05

Similarly, CCOC(C)c1nc(CN2CCC(CNC(C)=O)CC2)cs1 (stereo not drawn) ?
-2.86

Okay, and CCn1ncc2c1CCCC2NCC1=Cc2ccccc2OC1 (stereo not drawn) ?
-7.1

Could you do the same for O=C(Nc1cccc(N2CCCC2)c1)C1CCCN1c1nccs1 (stereo not drawn) , please?
-1.23

One more compound: O=C(CN1CCNCC1)N1CC[C@@H](c2ccc3ccccc3c2)[C@H](O)C1
2.08

Again, but for Cc1ccccc1CN1CCN(Cc2nccn2C)CC1
-1.6

Proceed to O=C(c1ccccn1)N1CCn2cnc(COCC3CC3)c2C1
3.23

Another compound to check: CC(O)CN1CCC(CNCc2cccc(OC(C)C)c2)CC1 (stereo not drawn)
-9.22

Can you check CN(Cc1nnc(-c2ccco2)o1)C1CCCN(c2cccnn2)C1 (stereo not drawn) next?
-0.82

CN1CCCN(c2nccc(-c3c[nH]nc3C3CCCCC3)n2)CC1 , same question.
1.33

Follow-up entry: CCCC(=O)N1CC[C@@H]2[C@H](CC1)N(Cc1cccnc1)CCS2(=O)=O
2.5

Check COc1cccc(N2CCN(CC(O)c3cc(C)ccc3C)CC2)c1 (stereo not drawn) too.
2.37

Now this one: Cc1nc(C2CCCN(C(=O)COCc3ccccc3Cl)C2)no1 (stereo not drawn)
6.21

Also, O[C@]1(c2ccccn2)CC[C@@H]2CN(Cc3cccc4ncccc34)C[C@@H]21 please.
0.696

###

# experimental.target: Proteasome subunit beta (Trypanosoma cruzi)
# assay.details: Trypanosoma cruzi proteasome chymotrypsin-like activity (TcProtChymo) assay.
# Type: functional
# Design: scale not given: in the data most compounds retested in dose-response had high values
# measurement.setup: 9.37 µM
Parameter: Percent Effect. Scope: all listed entries.
Please give a number only; it is taken to be in %.

// Percent Effect lookup, key: CCc1nc(CC(=O)N2CCN(c3cnccn3)CC2)cs1
0.343

Same again, this time with COc1ccc(C2CC(=O)Nc3c2cnn3C2CCCC2)cc1 (stereo unspecified)
5.31
